FYI, the data here is from ChEMBL document CHEMBL1811881.

molecular target: 17-beta-hydroxysteroid dehydrogenase type 3 (Homo sapiens) (UniProt P37058); experiment: Inhibition of 17Beta-HSD3 expressed in homogenized HEK293 cells assessed as transformation of [14C]-4-androstene-3,17-dione into [14C]-testosterone in presence of NADPH at 1 uM; assay type: cell-based
Sequence (P37058 whole entry): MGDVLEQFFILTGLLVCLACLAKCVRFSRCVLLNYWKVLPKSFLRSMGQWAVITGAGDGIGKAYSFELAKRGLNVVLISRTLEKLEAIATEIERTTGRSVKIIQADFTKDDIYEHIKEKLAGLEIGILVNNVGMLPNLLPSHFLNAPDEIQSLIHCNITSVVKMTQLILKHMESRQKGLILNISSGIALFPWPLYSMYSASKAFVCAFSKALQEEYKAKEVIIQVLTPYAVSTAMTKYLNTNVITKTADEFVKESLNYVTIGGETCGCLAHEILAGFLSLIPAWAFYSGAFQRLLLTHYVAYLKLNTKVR
For each entry below, report its inhibition value.
Record the result as a number with its unit.

Problem: What value of measured inhibition is listed for Cc1cccc(OCCN2C[C@]3(CC[C@@]4(C)[C@@H](CC[C@@H]5[C@@H]4CC[C@]4(C)C(=O)CC[C@@H]54)C3)OC2=O)c1 ?
Result: 95%

Problem: Now the same for C[C@]12CC[C@@]3(C[C@@H]1CC[C@@H]1[C@@H]2CC[C@]2(C)C(=O)CC[C@@H]12)CN(CCO)C(=O)O3
Result: 38%

Problem: Then C[C@]12CC[C@](O)(CN3CCN(Cc4ccccc4)CC3)C[C@@H]1CC[C@@H]1[C@@H]2CC[C@]2(C)C(=O)CC[C@@H]12 ?
Result: 90%

Problem: Also check C[C@]12CC[C@@]3(C[C@@H]1CC[C@@H]1[C@@H]2CC[C@]2(C)C(=O)CC[C@@H]12)CN(C1CCCCC1)C(=O)O3
Result: 78%
